# SYSTEM_NAME: T1, human Protein S (human, UniProt P07225 42-676)
# T1 construct: also called ProS; ProS1
# T1 sequence: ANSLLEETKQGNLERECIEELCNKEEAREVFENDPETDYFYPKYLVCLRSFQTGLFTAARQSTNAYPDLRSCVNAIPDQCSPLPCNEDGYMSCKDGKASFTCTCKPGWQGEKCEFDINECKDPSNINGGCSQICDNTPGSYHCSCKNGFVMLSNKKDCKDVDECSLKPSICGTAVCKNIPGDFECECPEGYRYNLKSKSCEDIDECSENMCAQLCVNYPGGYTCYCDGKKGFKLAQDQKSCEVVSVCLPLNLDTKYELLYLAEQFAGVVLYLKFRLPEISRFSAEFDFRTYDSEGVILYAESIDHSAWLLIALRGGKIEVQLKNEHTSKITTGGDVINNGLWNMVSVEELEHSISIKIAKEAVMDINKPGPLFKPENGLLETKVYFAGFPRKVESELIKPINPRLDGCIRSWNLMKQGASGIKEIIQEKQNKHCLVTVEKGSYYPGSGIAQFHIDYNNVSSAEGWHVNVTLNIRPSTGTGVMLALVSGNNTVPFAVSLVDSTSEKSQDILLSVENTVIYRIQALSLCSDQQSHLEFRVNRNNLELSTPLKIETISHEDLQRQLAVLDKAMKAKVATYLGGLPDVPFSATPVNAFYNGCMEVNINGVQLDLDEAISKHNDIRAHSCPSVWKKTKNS
# TEST_PROTOCOL: BLI Octet; antibody on anti-human Fc probe; Protein S 7.81-500 nM; 4 mM CaCl2
ENDPOINT: kon (M⁻¹ s⁻¹)
Answer in M⁻¹ s⁻¹, number only, no unit symbol.

Field: example entries. Status: answers known.
Antibody 8 (antibody, V domains shown, Same variable regions as Antibody 20) VH: QVQLQESGPGLVKPSETLSLTCAVSGYSISSGYYWGWIRQPPGKGLDWIGSIYYSGSTYYNPSLKSRVTISVDTSKNQISLKLSSVTAADTAVYYCATTYSDIVTGYYNDAFDIWGQGTMVTVSS VL: EIVMTQSPATLSVSPGERATLSCRASQRINSNLAWYQQKPGQAPRLLIYGASTRATGIPARFSGSGSGTEFTLTISSLQSEDFAAYYCQQYDNWPLTFGGGTKVEIK; 131000
Antibody 12 (antibody, V domains shown, Same variable regions as Antibody 24) VH: QVQLQESGPGLVKPSETLSLTCGVSGGSISSTNWWSWVRQPPGKGLEWIGEIYQTGSTDYDPSLKSRVTISIDKSKNQFSLKLYSVTAADTAVYYCARRFGELDYWGQGTLVTVSS VL: EIVMTQSPATLSVSPGERATLSCRASQSVTSNLAWYQQKPGQAPRLLIYDASTRATGIPARFSGSGSGTEFTLTISSLQSEDFAIYYCQQYNNWPTFGQGTRLEIK; 309000
Antibody 3 (antibody, V domains shown, Same variable regions as Antibody 15) VH: EVQLVESGGGLVQPGRSLRLSCAASGFTFDDYAMHWVRQAPGKGLEWVSGITWNSGNIGYADSVKGRFTISRDNAKNSLYLHMNSLRIEDTAFYYCAKGRAVSDTFDIWGQGTMVTVSS VL: SYELNQPPSVSVSPGQTASITCSGDKLGDKYASWYQQKPGQSPVVAIYQNSKRPSGIPERFSASNSGNTATLTISGTQALDEADYYCQAWDSSTWVFGGGTKLTVL; 164000
Antibody 41 (antibody, V domains shown, Same variable regions as Antibody 42) VH: QVQLVQSGSEVKKPGASVKVSCKASGYTFTNYYIHWVRQAPGQGLEWMGIITPSGGTTSYAQKFQGRVTMTRDTSTNTVYMGLSSLRSEDTAMYYCARAGVQLDRRGWFDPWGQGTLVTVSS VL: SYELTQPPSVSVSPGQTASITCSGDKLGDKYVFWYQQKPGQSPVLVIYQDSKRPSGIPERFSGSNSGNTATLTISGTQTMDEADYYCQAWDSSTVGFGGGTKLAVL; 80000

Turning now to a further binder:
[Q] Tell me the measured kon of Antibody 2 (antibody, V domains shown, Same variable regions as Antibody 14) VH: QVQLQESGPGLVKPSQTLSLTCTVSGGSITSDGYHWSWIRQYPGKGLDWIGYIYYTGNTYYNPSLKSRVTISVGTSQNQFSLKLISVTAADTAVYYCARRLSTGPYFDYWGQGTLVTVSS VL: QSALTQPASVSGSPGQSITISCTGTSSDVGGYEFVSWYQHHPGKAPKLMIYDVSSRPSGVSNRFSGSKSGNTASLTISGLQAEDEADYYCSSYTRSSTVVFGGGARLTVL , please.
[A] 207000
